# pIC50 annotations
Biological target: Histone deacetylase 8 (Homo sapiens)
Sequence (Q9BY41 whole entry): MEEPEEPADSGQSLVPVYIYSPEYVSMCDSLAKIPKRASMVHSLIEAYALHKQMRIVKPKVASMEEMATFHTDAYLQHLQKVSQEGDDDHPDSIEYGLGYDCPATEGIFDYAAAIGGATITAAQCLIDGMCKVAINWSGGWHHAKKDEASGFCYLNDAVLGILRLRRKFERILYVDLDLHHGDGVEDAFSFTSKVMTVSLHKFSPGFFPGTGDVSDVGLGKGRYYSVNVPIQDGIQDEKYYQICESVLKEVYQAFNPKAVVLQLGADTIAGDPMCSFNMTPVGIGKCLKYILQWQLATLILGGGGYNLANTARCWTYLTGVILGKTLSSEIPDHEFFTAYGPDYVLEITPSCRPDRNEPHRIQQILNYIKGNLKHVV
Experiment: Inhibition of recombinant HDAC8 assessed as inhibition of fluorogenic aminocoumarin release from substrate by trypsin-coupled biochemical assay
pIC50: −log10 of the molar value.
readout.label: pIC50

CC(=O)Nc1ccc(CSc2nc(C)cc(O)n2)cc1 = < 4.00
Cc1cc(O)nc(SCC(=O)C(C)(C)C)n1 = < 4.00
COC(=O)CSc1nc(C)cc(=O)[nH]1 = < 4.00
CC(=O)Nc1ccc(C(=O)COc2cc(C)cc(=O)[nH]2)cc1 = < 4.00
CC(=O)Nc1ccc(C(=O)CSc2nc(C)cc(O)n2)cc1 = 4.62
Cc1cc(=O)[nH]c(SCC(=O)c2ccc3c(c2)OCCO3)n1 = < 4.00
Cc1cc(=O)[nH]c(SCC(=O)c2ccc(O)cc2)n1 = < 4.00
CC(=O)Nc1ccc(C(O)CSc2nc(C)cc(O)n2)cc1 (centres undefined) = < 4.00
Cc1cc(O)nc(SCC(=O)c2ccc(O)c(O)c2)n1 = < 4.00

* * *

Biological target: Protein deacetylase HDAC6 (Homo sapiens, UniProt Q9UBN7)
Sequence (Q9UBN7 whole entry): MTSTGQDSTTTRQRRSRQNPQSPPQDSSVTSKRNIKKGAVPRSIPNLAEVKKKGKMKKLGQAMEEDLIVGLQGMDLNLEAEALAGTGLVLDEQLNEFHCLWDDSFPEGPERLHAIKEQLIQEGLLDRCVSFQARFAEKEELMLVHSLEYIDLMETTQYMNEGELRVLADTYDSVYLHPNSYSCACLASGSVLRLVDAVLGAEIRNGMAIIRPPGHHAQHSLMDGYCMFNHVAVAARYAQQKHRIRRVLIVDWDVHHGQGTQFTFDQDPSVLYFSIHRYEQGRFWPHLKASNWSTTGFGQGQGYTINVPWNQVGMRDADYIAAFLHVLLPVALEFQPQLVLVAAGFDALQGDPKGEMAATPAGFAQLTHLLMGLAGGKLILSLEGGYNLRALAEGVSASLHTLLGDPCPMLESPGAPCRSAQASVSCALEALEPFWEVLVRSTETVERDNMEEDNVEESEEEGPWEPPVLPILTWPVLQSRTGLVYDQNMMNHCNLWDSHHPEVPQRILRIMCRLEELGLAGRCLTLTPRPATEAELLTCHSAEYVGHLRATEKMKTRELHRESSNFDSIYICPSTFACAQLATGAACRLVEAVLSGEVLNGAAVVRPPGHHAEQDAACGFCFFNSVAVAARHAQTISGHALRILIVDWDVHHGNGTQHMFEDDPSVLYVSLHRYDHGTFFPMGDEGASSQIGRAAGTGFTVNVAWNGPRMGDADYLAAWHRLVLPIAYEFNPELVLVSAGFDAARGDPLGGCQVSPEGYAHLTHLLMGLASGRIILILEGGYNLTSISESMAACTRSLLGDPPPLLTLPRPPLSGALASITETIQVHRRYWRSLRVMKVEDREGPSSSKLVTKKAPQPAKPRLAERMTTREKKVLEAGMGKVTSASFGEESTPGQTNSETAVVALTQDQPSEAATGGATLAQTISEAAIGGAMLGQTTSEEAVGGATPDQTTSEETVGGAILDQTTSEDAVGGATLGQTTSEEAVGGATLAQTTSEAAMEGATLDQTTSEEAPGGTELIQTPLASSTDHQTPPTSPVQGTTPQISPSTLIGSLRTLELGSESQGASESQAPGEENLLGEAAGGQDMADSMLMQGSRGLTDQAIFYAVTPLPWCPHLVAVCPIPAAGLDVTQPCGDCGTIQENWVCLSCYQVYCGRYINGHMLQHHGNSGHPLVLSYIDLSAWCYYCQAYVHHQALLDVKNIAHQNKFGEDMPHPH
Assay: Inhibition of recombinant HDAC6 assessed as inhibition of fluorogenic aminocoumarin release from substrate by trypsin-coupled biochemical assay
pIC50: −log10 of the molar value.
In this section, each of the compounds is paired with its reported pIC50.
readout.label: pIC50

Cc1cc(O)nc(SCC(=O)c2cccs2)n1 = 4.61
Cc1cc(O)nc(SCC(=O)c2ccc(Cl)cc2)n1 = 4.89
